Experiment: In vivo test of oral powder for constitution in beagle dogs (Example 2)
Details: male, dog, plasma, Fed, 90 mgA Drug 1 oral OPC, read-out: AUC(0-12)
Procedure: Dispersions 1 and 4 were used as oral powders for constitution (OPC) for evaluating the performance of the dispersions in in vivo tests using male beagle dogs. […] To form the OPC, sufficient quantity of the test composition to result in a 90 mgA amount of Drug 1 was accurately weighed and placed into a mortar. (“mgA” refers to mg of active drug.) A 20 mL quantity of the stock suspension solution was added to the mortar and the test composition was mixed with a pestle. […]

| compound | AUC(0-t), ng·h/mL |
| --- | --- |
| CCOC(=O)N1c2ccc(C(F)(F)F)cc2[C@@H](N(Cc2cc(C(F)(F)F)cc(C(F)(F)F)c2)C(=O)OC)C[C@H]1CC [Amorphous Drug 1] | 640 |

====

test: In vivo test of oral powder for constitution in beagle dogs (Example 10); settings: male, dog, plasma, Fed, 90 mgA Drug 1 oral OPC

| molecularString | Cmax [ng/mL] |
| --- | --- |
| CCOC(=O)N1c2ccc(C(F)(F)F)cc2[C@@H](N(Cc2cc(C(F)(F)F)cc(C(F)(F)F)c2)C(=O)OC)C[C@H]1CC | 190 |

====

experiment: In vivo test of oral powder for constitution in beagle dogs (Example 10); conditions: male, dog, plasma, Fed, 90 mgA Drug 1 oral OPC, read-out: AUC(0-12)

| molecularString | AUC(0-t) [ng·h/mL] |
| --- | --- |
| CCOC(=O)N1c2ccc(C(F)(F)F)cc2[C@@H](N(Cc2cc(C(F)(F)F)cc(C(F)(F)F)c2)C(=O)OC)C[C@H]1CC | 640 |

====

assay: physchem; details: pH 6, aqueous buffer

| molecularString | solubility |
| --- | --- |
| CCCc1nn(C)c2c(=O)[nH]c(-c3cc(S(=O)(=O)N4CCN(C)CC4)ccc3OCC)nc12.O=C(O)CC(O)(CC(=O)O)C(=O)O | ~20 µg/mL |

====

assay: Aqueous solubility of the drugs used in the examples; conditions: water

| compound | solubility |
| --- | --- |
| CCOC(=O)N1c2ccc(C(F)(F)F)cc2[C@@H](N(Cc2cc(C(F)(F)F)cc(C(F)(F)F)c2)C(=O)OC)C[C@H]1CC [Drug 1] | < 0.04 µg/mL |
| CC[C@@H]1C[C@H](N(Cc2cc(C(F)(F)F)cc(C(F)(F)F)c2)C(=O)OC)c2cc(C(F)(F)F)ccc2N1C(=O)OC(C)C [Drug 3] | < 1 µg/mL |
| CC[C@@H]1C[C@H](N(Cc2cc(C(F)(F)F)cc(C(F)(F)F)c2)C(C)=O)c2cc(C(F)(F)F)ccc2N1C(=O)OC(C)C [Drug 2] | < 1 µg/mL |
| CCc1cc(Oc2cccc(N(Cc3cccc(OC(F)(F)C(F)F)c3)C[C@@H](O)C(F)(F)F)c2)ccc1Cl [Drug 4] | < 1 µg/mL |

Source listed as patent US8940800B2.
